The reported measurements were obtained from PubChem BioAssay.

# method_notes: human hepatoma cell viability loss – ATP luminescence, cytotoxicity control for P. falciparum antimalarial project, primary screen (AID 2303);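 also: 0% = DMSO wells and 100% = digitonin-killed cells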
# settings: HepG2 viability, 24-48 h, at 10 µM, active compounds read high
For each record, check the reported inhibition: if it is below 10% write 1 (yes), else write 0 (no).

These solved cases illustrate the format of a correct answer.
CC(C)(C)S[C@H]1S[C@H](SC(C)(C)C)[C@@H](OC(=O)c2ccccc2)C(OC(=O)c2ccccc2)[C@H]1OC(=O)c1ccccc1 (stereo not given in full) ... 1 (yes)
Oc1ccc(CCCNc2nc(NCc3cccc4ccccc34)nc(NC3CCNCC3)n2)cc1 ... 1 (yes)
CCN(CCCN1CCCCC1)c1cc(C)nc(Nc2cc(Cl)ccc2C)n1 ... 0 (no)
CCCC(N)C(=O)NC1CCN(c2c(F)c(N)c3c(=O)c(C(=O)O)cn4c3c2Oc2ccccc2-4)C1 (stereo not given) ... 0 (no)
CCc1ccc(-n2cc(C(=O)c3cc(Br)ccc3O)cc(C#N)c2=O)cc1 ... 1 (yes)

[in] Hello, I'm reviewing records and need to know if inhibition of `CC(=O)Nc1ccc(OCCN(CC(C)C)c2ccc(C(F)(F)F)c(C#N)c2)c(Cl)c1` is below 10%. Could you check?
[out] 0 (no)

[in] Hello, I'm reviewing records and need to know if inhibition of `COc1ccc(C(=O)N2CCC3(CC2)C(=O)N(CC(=O)NCC2CCCCC2)CN3c2ccccc2)cc1` is below 10%. Could you check?
[out] 0 (no)

[in] Hello, I'm reviewing records and need to know if inhibition of `CCc1ccc(C(=O)Nc2cccc(CN3CCCN(Cc4ccc(O)cc4)CC3)c2)cc1` is below 10%. Could you check?
[out] 0 (no)

[in] Hello, I'm reviewing records and need to know if inhibition of `O=C(NC1CC1)c1cnc(N2CCC(OCc3ccccc3)CC2)c(Cl)c1` is below 10%. Could you check?
[out] 1 (yes)
